Origin of measurements: PubChem BioAssay AID1963849

Tested on: 299254-011-R-J1-PDC complex spheroid viability
Test: Anticancer human tumor 299254-011-R-J1-PDC patient-derived melanoma cell line growth inhibition [POLQ]
Settings: second compound 0.316 µM; first compound 0.001 µM; stronger effect = lower value
Reported Property: viability, T/C

Task: Using known records, supply viability, T/C for Cn1ncnc1[C@H]1c2n[nH]c(=O)c3cc(F)cc(c23)N[C@@H]1c1ccc(F)cc1 + Cc1cccc(N(C)C(=O)C2C(O)CCN2c2nc(C)cc(C(F)(F)F)c2C#N)c1
Result: 96.4%

Task: Using known records, supply viability, T/C for CC[C@@]1(O)C(=O)OCc2c1cc1n(c2=O)Cc2cc3c(CN(C)C)c(O)ccc3nc2-1 + Nc1ccc(C#CCN(C(=O)Cc2ncc(C(F)(F)F)cc2C(F)(F)F)c2ccc(F)cc2)nn1
Result: 102%

Task: Using known records, supply viability, T/C for Cn1ncnc1[C@H]1c2n[nH]c(=O)c3cc(F)cc(c23)N[C@@H]1c1ccc(F)cc1 + Nc1ccc(C#CCN(C(=O)Cc2ncc(C(F)(F)F)cc2C(F)(F)F)c2ccc(F)cc2)nn1
Result: 113%

Task: Using known records, supply viability, T/C for Cn1ncnc1[C@H]1c2n[nH]c(=O)c3cc(F)cc(c23)N[C@@H]1c1ccc(F)cc1 + COC1C(OC(N)=O)C(O)C(Oc2ccc3c(O)c(NC(=O)c4ccc(O)c(CC=C(C)C)c4)c(=O)oc3c2C)OC1(C)C
Result: 94.6%

Task: Using known records, supply viability, T/C for CC[C@@]1(O)C(=O)OCc2c1cc1n(c2=O)Cc2cc3c(CN(C)C)c(O)ccc3nc2-1 + COC1C(OC(N)=O)C(O)C(Oc2ccc3c(O)c(NC(=O)c4ccc(O)c(CC=C(C)C)c4)c(=O)oc3c2C)OC1(C)C
Result: 120%

Task: Using known records, supply viability, T/C for CC[C@@]1(O)C(=O)OCc2c1cc1n(c2=O)Cc2cc3c(CN(C)C)c(O)ccc3nc2-1 + Cc1cccc(N(C)C(=O)C2C(O)CCN2c2nc(C)cc(C(F)(F)F)c2C#N)c1
Result: 115%

* * *

Test system: 299254-011-R-J1-PDC complex spheroid viability
Test: Anticancer human tumor 299254-011-R-J1-PDC cell line growth inhibition [POLQ];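 further: spheroids exposed to drugs for one week before measurement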
Details: curve of first compound; second compound 3.16 µM
Reported Property: pIC50
# pIC50 is unitless: minus log10 of the molar concentration; print number only

Task: Under 299254-011-R-J1-PDC complex spheroid viability, report pIC50 for CC1COCCN1c1cc(-c2ccnn2C)c2ccnc(-c3ccn[nH]3)c2n1 (centres undefined) + COC1C(OC(N)=O)C(O)C(Oc2ccc3c(O)c(NC(=O)c4ccc(O)c(CC=C(C)C)c4)c(=O)oc3c2C)OC1(C)C
Result: 6.63

Task: Under 299254-011-R-J1-PDC complex spheroid viability, report pIC50 for CC(=O)O[C@H]1C(=O)[C@@]2(C)[C@H]([C@H](OC(=O)c3ccccc3)[C@]3(O)C[C@H](OC(=O)[C@H](O)[C@@H](NC(=O)c4ccccc4)c4ccccc4)C(C)=C1C3(C)C)[C@]1(OC(C)=O)CO[C@@H]1C[C@@H]2O + Nc1ccc(C#CCN(C(=O)Cc2ncc(C(F)(F)F)cc2C(F)(F)F)c2ccc(F)cc2)nn1
Result: 7.60
